Tested on: BALL-1 (B-Lymphoblastic Leukemia)
ASSAY OVERVIEW: combination Emax (second highest fraction inhibited in the dose matrix, 72 h); higher = more inhibition; extreme values may be limits of the assay
READOUT KIND: combination Emax
Please state the value as a number alone, without comment.

Recorded combination Emax, per entry:
COMPOUND	READOUT KIND	OBS VALUE
Cc1cc2ncnn2cc1Nc1ncc2c(n1)n(C1CCOCC1)c(=O)n2C [AZD7648] + O=C(c1cc(Cc2n[nH]c(=O)c3ccccc23)ccc1F)N1CCN(C(=O)C2CC2)CC1 [Olaparib] (first compound max 10 µM, 7x7, partner max 10 µM)	combination Emax	0.826
CN(C)CCCOc1ccc(-c2ccc3ncc4c(c3c2)n(C2CCOCC2)c(=O)n4C)cn1 [AZD0156] + C[C@@H]1COCCN1C2=NC(=NC(=C2)C3(CC3)[S@](=N)(=O)C)C4=C5C=CNC5=NC=C4 [AZD6738] (first compound max 1 µM, 7x7, partner max 10 µM)	combination Emax	0.986
NC1(C(=O)N[C@@H](CCO)c2ccc(Cl)cc2)CCN(c2ncnc3[nH]ccc23)CC1 [Capivasertib] + CC(C)n1c(=O)n(C)c2cnc3cc(F)c(-c4ccc(OCCCN5CCCCC5)nc4)cc3c21 [AZD1390] (first compound max 10 µM, 7x7, partner max 0.3 µM)	combination Emax	0.576

Value of combination Emax reported for the compound Cc1c2c(nn1C)CSCc1cc(n(C)n1)CSc1cc(c3ccccc3c1)OCCCc1c(C(=O)O)n(C)c3c-2c(Cl)ccc13 [AZD5991] + C[C@@H](Nc1cc(F)cc(F)c1)c1cc(C(=O)N(C)C)cc2c(=O)cc(N3CCOCC3)oc12 [AZD8186] (first compound max 1 µM, 7x7, partner max 3 µM) is 0.374

###

Test system: NCI-H810 (Non-Small Cell Lung Carcinoma);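 further: after 72 h of two-drug dosing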
ASSAY OVERVIEW: Bliss excess, mean over the matrix (fraction); higher = more synergy
Quick reference: Bliss excess of the listed items.

compound COc1nnc2ccc(N3CCC(c4ccc(OCCN5CCN(C)C(=O)[C@H]5C)cc4)CC3)nn12 [AZD5153] + Cc1c2c(nn1C)CSCc1cc(n(C)n1)CSc1cc(c3ccccc3c1)OCCCc1c(C(=O)O)n(C)c3c-2c(Cl)ccc13 [AZD5991] (first compound max 1 µM, 7x7, partner max 1 µM) , Bliss excess observed: 0.0448

Lookup result for C[C@@H](Oc1cc(-c2cnn(C3CCNCC3)c2)cnc1N)c1c(Cl)ccc(F)c1Cl [Crizotinib] + Cn1cnc2c(F)c(Nc3ccc(Br)cc3Cl)c(C(=O)NOCCO)cc21 [Selumetinib] (first compound max 10 µM, 7x7, partner max 10 µM) ; measured Bliss excess: -0.123

Notebook: Cc1nc(Nc2ncc(C(=O)Nc3c(C)cccc3Cl)s2)cc(N2CCN(CCO)CC2)n1 [Dasatinib] + CC(=O)Nc1cccc(-n2c(=O)n(C3CC3)c(=O)c3c(Nc4ccc(I)cc4F)n(C)c(=O)c(C)c32)c1 [Trametinib] (first compound max 2 µM, 7x7, partner max 1 µM) , Bliss excess read as -0.0565

What the record says about CCc1c2c(nc3ccc(O)cc13)-c1cc3c(c(=O)n1C2)COC(=O)[C@]3(O)CC [SN-38] + CN(C)CCCOc1ccc(-c2ccc3ncc4c(c3c2)n(C2CCOCC2)c(=O)n4C)cn1 [AZD0156] (first compound max 0.3 µM, 7x7, partner max 1 µM) : Bliss excess is -0.0022

###

# combination Emax per entry
System: SW684 (Other Solid Carcinomas)
ASSAY OVERVIEW: combination Emax (second highest fraction inhibited in the dose matrix, 72 h); higher = more inhibition; extreme values may be limits of the assay

COMPOUND	TGT	OBS VALUE
COc1cccc(OCCCN)c1-c1cc(Nc2cnc(C#N)cn2)n[nH]1 [Prexasertib] + Cc1cc2ncnn2cc1Nc1ncc2c(n1)n(C1CCOCC1)c(=O)n2C [AZD7648] (first compound max 1 µM, 7x7, partner max 10 µM)	SW684 (Other Solid Carcinomas)	0.498

Now turn to the next compound.
Form: item C[C@@H](Oc1cc(-c2cnn(C3CCNCC3)c2)cnc1N)c1c(Cl)ccc(F)c1Cl [Crizotinib] + Cn1cnc2c(F)c(Nc3ccc(Br)cc3Cl)c(C(=O)NOCCO)cc21 [Selumetinib] (first compound max 10 µM, 7x7, partner max 10 µM) ; test system SW684 (Other Solid Carcinomas); combination Emax: 0.39

###

We begin with a simple list: items and their reported combination Emax.
System: Becker (Low Grade Glioma)
ASSAY OVERVIEW: combination Emax (second highest fraction inhibited in the dose matrix, 72 h); higher = more inhibition; extreme values may be limits of the assay
Enter the number alone.

MOLECULE	OBS VALUE
COc1nnc2ccc(N3CCC(c4ccc(OCCN5CCN(C)C(=O)[C@H]5C)cc4)CC3)nn12 [AZD5153] + CCN(CCO)CCCOc1ccc2c(Nc3cc(CC(=O)Nc4cccc(F)c4)[nH]n3)ncnc2c1 [AZD2811] (first compound max 1 µM, 7x7, partner max 1 µM)	0.423
COc1cccc(OCCCN)c1-c1cc(Nc2cnc(C#N)cn2)n[nH]1 [Prexasertib] + C=CCn1c(=O)c2cnc(Nc3ccc(N4CCN(C)CC4)cc3)nc2n1-c1cccc(C(C)(C)O)n1 [AZD1775] (first compound max 1 µM, partner max 1 µM)	0.733
C[C@@H]1COCCN1c1cc(C2([S@](C)(=N)=O)CC2)nc(-c2ccnc3[nH]ccc23)n1 [AZD6738] + O=C(c1cc(Cc2n[nH]c(=O)c3ccccc23)ccc1F)N1CCN(C(=O)C2CC2)CC1 [Olaparib] (first compound max 10 µM, 7x7, partner max 10 µM)	0.601
Cn1cnc2c(F)c(Nc3ccc(Br)cc3Cl)c(C(=O)NOCCO)cc21 [Selumetinib] + CC(C)n1c(=O)n(C)c2cnc3cc(F)c(-c4ccc(OCCCN5CCCCC5)nc4)cc3c21 [AZD1390] (first compound max 10 µM, 7x7, partner max 0.3 µM)	0.235
CS(=O)(=O)CCNCc1ccc(-c2ccc3ncnc(Nc4ccc(OCc5cccc(F)c5)c(Cl)c4)c3c2)o1 [Lapatinib] + NC1(c2ccc(-c3nc4ccn5c(=O)[nH]nc5c4cc3-c3ccccc3)cc2)CCC1 [MK-2206] (first compound max 10 µM, 7x7, partner max 10 µM)	0.808

Sample COc1cc2ncnc(Nc3ccc(F)c(Cl)c3)c2cc1OCCCN1CCOCC1 [Gefitinib] + CC(C)n1c(=O)n(C)c2cnc3cc(F)c(-c4ccc(OCCCN5CCCCC5)nc4)cc3c21 [AZD1390] (first compound max 10 µM, 7x7, partner max 0.3 µM) ; combination Emax observed: 0.126

So for Cc1cc2ncnn2cc1Nc1ncc2c(n1)n(C1CCOCC1)c(=O)n2C [AZD7648] + C[C@@H]1COCCN1C2=NC(=NC(=C2)C3(CC3)[S@](=N)(=O)C)C4=C5C=CNC5=NC=C4 [AZD6738] (first compound max 10 µM, 7x7, partner max 10 µM) , the logged combination Emax turned out to be 0.607

# molecule COc1nnc2ccc(N3CCC(c4ccc(OCCN5CCN(C)C(=O)[C@H]5C)cc4)CC3)nn12 [AZD5153] + CC1(C)CCC(CN2CCN(c3ccc(C(=O)NS(=O)(=O)c4ccc(NCC5CCOCC5)c([N+](=O)[O-])c4)c(Oc4cnc5[nH]ccc5c4)c3)CC2)=C(c2ccc(Cl)cc2)C1 [Venetoclax] (first compound max 1 µM, 7x7, partner max 1 µM) ; its combination Emax = 0.334

combination Emax reading for C[C@@H](c1ccc2nccn2c1)n1nnc2ncc(-c3cnn(C)c3)nc21 [Savolitinib] + CC1(C)CCC(CN2CCN(c3ccc(C(=O)NS(=O)(=O)c4ccc(NCC5CCOCC5)c([N+](=O)[O-])c4)c(Oc4cnc5[nH]ccc5c4)c3)CC2)=C(c2ccc(Cl)cc2)C1 [Venetoclax] (first compound max 1 µM, 7x7, partner max 1 µM) : 0.344

###

System: CML-T1 (Chronic Myelogenous Leukemia)
ASSAY OVERVIEW: combination Emax (second highest fraction inhibited in the dose matrix, 72 h); higher = more inhibition; extreme values may be limits of the assay
Overview of recorded combination Emax for various compounds
Write the number on its own, no unit after it.

COMPOUND	TGT	combination Emax
CC(=O)c1c(C)c2cnc(Nc3ccc(N4CCNCC4)cn3)nc2n(C2CCCC2)c1=O [Palbociclib] + CC1(C)CCC(CN2CCN(c3ccc(C(=O)NS(=O)(=O)c4ccc(NCC5CCOCC5)c([N+](=O)[O-])c4)c(Oc4cnc5[nH]ccc5c4)c3)CC2)=C(c2ccc(Cl)cc2)C1 [Venetoclax] (first compound max 10 µM, 7x7, partner max 1 µM)	CML-T1 (Chronic Myelogenous Leukemia)	0.932
CCN(CCO)CCCOc1ccc2c(Nc3cc(CC(=O)Nc4cccc(F)c4)[nH]n3)ncnc2c1 [AZD2811] + O=C(c1cc(Cc2n[nH]c(=O)c3ccccc23)ccc1F)N1CCN(C(=O)C2CC2)CC1 [Olaparib] (first compound max 1 µM, 7x7, partner max 10 µM)	CML-T1 (Chronic Myelogenous Leukemia)	0.829
CCN(CCO)CCCOc1ccc2c(Nc3cc(CC(=O)Nc4cccc(F)c4)[nH]n3)ncnc2c1 [AZD2811] + C=CCn1c(=O)c2cnc(Nc3ccc(N4CCN(C)CC4)cc3)nc2n1-c1cccc(C(C)(C)O)n1 [AZD1775] (first compound max 1 µM, partner max 1 µM)	CML-T1 (Chronic Myelogenous Leukemia)	0.915

// moving on: another record for combination Emax
Measured combination Emax, CC(=O)Nc1cccc(-n2c(=O)n(C3CC3)c(=O)c3c(Nc4ccc(I)cc4F)n(C)c(=O)c(C)c32)c1 [Trametinib] + Cc1nc(-c2cn3c(n2)-c2ccc(-c4cnn(C(C)(C)C(N)=O)c4)cc2OCC3)n(C(C)C)n1 [Taselisib] (first compound max 1 µM, 7x7, partner max 10 µM) : 0.465
